- assayed target: UniProt O14684
- Sequence (O14684 whole entry): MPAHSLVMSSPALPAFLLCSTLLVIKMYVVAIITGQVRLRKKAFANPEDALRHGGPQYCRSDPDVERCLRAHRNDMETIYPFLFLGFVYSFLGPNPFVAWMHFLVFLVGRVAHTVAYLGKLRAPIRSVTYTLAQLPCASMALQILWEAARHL
- assay notes: Inhibition of mPGES-1 from human A549 cell microsomal membranes using PGH2 as substrate incubated 15 mins prior to substrate addition measured after 1 min by RP-HPLC analysis
pIC50: −log10 of the molar value.
Would you please tag the item condition met when its pIC50 is 6 or above, and condition not met when it is below?

INSERT INTO measurements (compound, label_class) VALUES
  ('CCCCCCC(Sc1nc(Cl)cc(Nc2nc(-c3ccc4ccccc4c3)cs2)n1)C(=O)O (racemic)', 'condition met'),
  ('CCCCCCC(Sc1nc(Cl)cc(Nc2nc(-c3ccc(-c4ccccc4)cc3)cs2)n1)C(=O)O (stereo not drawn)', 'condition met'),
  ('CCCCCCC(Sc1nc(Cl)cc(Nc2nc(-c3ccccc3)c(CC)s2)n1)C(=O)O (stereo not drawn)', 'condition not met'),
  ('CCCCCC[C@@H](Sc1nc(Cl)cc(Nc2nc(-c3ccc4ccccc4c3)cs2)n1)C(=O)O', 'condition met'),
  ('CCCCCCC(Sc1nc(Cl)cc(Nc2nc(-c3ccc(C(F)(F)F)cc3)cs2)n1)C(=O)O (stereo not drawn)', 'condition met'),
  ('CCCCCCC(Sc1nc(Cl)cc(Nc2nc(-c3ccc4c(c3)CCCC4)cs2)n1)C(=O)O (stereo not drawn)', 'condition met'),
  ('O=C(O)CSc1nc(Cl)cc(Nc2nc(-c3ccc(Cl)cc3)cs2)n1', 'condition not met'),
  ('CCCCCCC(Sc1nc(Cl)cc(Nc2nc(-c3ccc(Cl)c(Cl)c3)cs2)n1)C(=O)O (stereo not drawn)', 'condition met'),
  ('CCCCCC[C@H](Sc1nc(Cl)cc(Nc2nc(-c3ccc4ccccc4c3)cs2)n1)C(=O)O', 'condition met'),
  ('CCCCCCC(Sc1nc(Cl)cc(Nc2nc(-c3cccc4ccccc34)cs2)n1)C(=O)O (stereo not drawn)', 'condition not met'),
  ('O=C(O)C(Sc1nc(Cl)cc(Nc2nc(-c3ccc(Cl)cc3)cs2)n1)c1cccc2ccccc12 (stereo not drawn)', 'condition met'),
  ('CCCCCCC(Sc1nc(Cl)cc(Nc2nc3c(s2)CCc2cc(OC)ccc2-3)n1)C(=O)O (stereo not drawn)', 'condition not met'),
  ('CCCCCCC(Sc1nc(Cl)cc(Nc2nc(-c3ccccc3)c(-c3ccccc3)s2)n1)C(=O)O (stereo not drawn)', 'condition met'),
  ('CCCCCCC(Sc1nc(Cl)cc(Nc2nc(-c3ccc(F)cc3F)cs2)n1)C(=O)O (stereo not drawn)', 'condition not met'),
  ('CCCCCCC(Sc1nc(Cl)cc(Nc2nc(-c3ccc(Cl)cc3Cl)cs2)n1)C(=O)O (stereo not drawn)', 'condition met');

---

// log10(IC50) lookup, one value per entry
- assayed target: Polyunsaturated fatty acid 5-lipoxygenase (Homo sapiens)
- assay notes: Inhibition of 5-lipoxygenase in A23187-stimulated human polymorphonuclear leukocytes using arachidonic acid as substrate incubated 15 mins prior to substrate addition measured after 10 mins by HPLC analysis
measured metric: log10(IC50) (log10 of the value in nM)

INSERT INTO measurements (compound, assayed_target, measured_metric, test_value) VALUES
  ('CCCCCCC(Sc1nc(Cl)cc(Nc2nc(-c3ccc([N+](=O)[O-])cc3)cs2)n1)C(=O)O (centres undefined)', 'Polyunsaturated fatty acid 5-lipoxygenase (Homo sapiens)', 'log10(IC50)', 3.15),
  ('CCC(Sc1nc(Cl)cc(Nc2nc(-c3ccc4ccccc4c3)cs2)n1)C(=O)O (centres undefined)', 'Polyunsaturated fatty acid 5-lipoxygenase (Homo sapiens)', 'log10(IC50)', 3.46),
  ('CCCCCCC(Sc1nc(Cl)cc(Nc2nc(-c3ccccc3)c(C)s2)n1)C(=O)O (centres undefined)', 'Polyunsaturated fatty acid 5-lipoxygenase (Homo sapiens)', 'log10(IC50)', 2.78),
  ('CCCCCCC(Sc1nc(Cl)cc(Nc2cccc(C)c2C)n1)C(=O)O (centres undefined)', 'Polyunsaturated fatty acid 5-lipoxygenase (Homo sapiens)', 'log10(IC50)', 3.59),
  ('CCCCCC[C@H](Sc1nc(Cl)cc(Nc2nc(-c3ccc4ccccc4c3)cs2)n1)C(=O)O', 'Polyunsaturated fatty acid 5-lipoxygenase (Homo sapiens)', 'log10(IC50)', 2.95),
  ('CCCCCCC(Sc1nc(Cl)cc(Nc2nc(-c3ccc(OC)cc3)cs2)n1)C(=O)O (centres undefined)', 'Polyunsaturated fatty acid 5-lipoxygenase (Homo sapiens)', 'log10(IC50)', 2.90),
  ('CCCCCCC(Sc1nc(Cl)cc(Nc2nc(-c3ccccc3)c(-c3ccccc3)s2)n1)C(=O)O (centres undefined)', 'Polyunsaturated fatty acid 5-lipoxygenase (Homo sapiens)', 'log10(IC50)', 2.78),
  ('CCCCCCC(Sc1nc(Cl)cc(Nc2nc(-c3cccc4ccccc34)cs2)n1)C(=O)O (centres undefined)', 'Polyunsaturated fatty acid 5-lipoxygenase (Homo sapiens)', 'log10(IC50)', 2.60),
  ('CCCCCCC(Sc1nc(Cl)cc(Nc2nc(-c3ccc(C)cc3)cs2)n1)C(=O)O (centres undefined)', 'Polyunsaturated fatty acid 5-lipoxygenase (Homo sapiens)', 'log10(IC50)', 2.30);

---

- assayed target: Polyunsaturated fatty acid 5-lipoxygenase (Homo sapiens)
- assay notes: Inhibition of human recombinant 5-lipoxygenase expressed in Escherichia coli BL21 using arachidonic acid as substrate incubated 5 to 10 mins prior to substrate addition measured after 10 mins by HPLC analysis
pIC50: −log10 of the molar value.
// pIC50 lookup, one value per entry
measured metric: pIC50

INSERT INTO assay_data (compound, measured_metric, test_value) VALUES
  ('CCCCCCC(Sc1nc(Cl)cc(Nc2nc(-c3ccccc3)c(CC)s2)n1)C(=O)O (centres undefined)', 'pIC50', 5.74),
  ('CCCCCC[C@@H](Sc1nc(Cl)cc(Nc2nc(-c3ccc4ccccc4c3)cs2)n1)C(=O)O', 'pIC50', 6.40),
  ('CCCCCCC(Sc1nc(Cl)cc(Nc2nc(-c3cccc4ccccc34)cs2)n1)C(=O)O (centres undefined)', 'pIC50', 6.15),
  ('CCCCC(Sc1nc(Cl)cc(Nc2nc(-c3ccc(Cl)cc3)cs2)n1)C(=O)O (centres undefined)', 'pIC50', 5.42),
  ('CCCCCCC(Sc1nc(Cl)cc(Nc2nc(-c3ccc(Br)cc3)cs2)n1)C(=O)O (centres undefined)', 'pIC50', 6.15),
  ('CCCCCCC(Sc1nc(Cl)cc(Nc2nc(-c3ccc(C)cc3)cs2)n1)C(=O)O (centres undefined)', 'pIC50', 5.52),
  ('CCCCCCC(Sc1nc(Cl)cc(Nc2nc(-c3ccc(Cl)cc3Cl)cs2)n1)C(=O)O (centres undefined)', 'pIC50', 5.96),
  ('CCCCCCC(Sc1nc(Cl)cc(Nc2nc(-c3ccc(F)c(F)c3)cs2)n1)C(=O)O (centres undefined)', 'pIC50', 5.64),
  ('CCCCCCC(Sc1nc(Cl)cc(Nc2nc(-c3ccc(F)cc3F)cs2)n1)C(=O)O (centres undefined)', 'pIC50', 5.60),
  ('CCCCCCC(Sc1nc(Cl)cc(Nc2nc(-c3ccccc3)c(C)s2)n1)C(=O)O (centres undefined)', 'pIC50', 5.72),
  ('CCCCCCC(Sc1nc(Cl)cc(Nc2nc(-c3ccc4c(c3)CCCC4)cs2)n1)C(=O)O (centres undefined)', 'pIC50', 5.64),
  ('CCCCCCC(Sc1nc(Cl)cc(Nc2nc(-c3ccc(Cl)c(Cl)c3)cs2)n1)C(=O)O (centres undefined)', 'pIC50', 6.15),
  ('O=C(O)C(Sc1nc(Cl)cc(Nc2nc(-c3ccc(Cl)cc3)cs2)n1)c1cccc2ccccc12 (centres undefined)', 'pIC50', 6.15),
  ('CCC(Sc1nc(Cl)cc(Nc2nc(-c3ccc(Cl)cc3)cs2)n1)C(=O)O (centres undefined)', 'pIC50', 5.18),
  ('CCCCCCC(Sc1nc(Cl)cc(Nc2nc(C34CC5CC(CC(C5)C3)C4)cs2)n1)C(=O)O (centres undefined)', 'pIC50', 5.30),
  ('CCCCCCC(Sc1nc(Cl)cc(Nc2nc(-c3ccc4ccccc4c3)cs2)n1)C(=O)O (racemic)', 'pIC50', 6.52),
  ('CCCCCCC(Sc1nc(Cl)cc(Nc2nc(-c3ccccc3)cs2)n1)C(=O)O (centres undefined)', 'pIC50', 5.70),
  ('CCCCCCC(Sc1nc(Cl)cc(Nc2nc(-c3ccccc3)c(-c3ccccc3)s2)n1)C(=O)O (centres undefined)', 'pIC50', 6.15),
  ('CCCCCCC(Sc1nc(Cl)cc(Nc2nc(-c3ccc(-c4ccccc4)cc3)cs2)n1)C(=O)O (centres undefined)', 'pIC50', 6.22);

---

- assayed target: Polyunsaturated fatty acid 5-lipoxygenase (Homo sapiens, UniProt P09917)
- Sequence (P09917 whole entry): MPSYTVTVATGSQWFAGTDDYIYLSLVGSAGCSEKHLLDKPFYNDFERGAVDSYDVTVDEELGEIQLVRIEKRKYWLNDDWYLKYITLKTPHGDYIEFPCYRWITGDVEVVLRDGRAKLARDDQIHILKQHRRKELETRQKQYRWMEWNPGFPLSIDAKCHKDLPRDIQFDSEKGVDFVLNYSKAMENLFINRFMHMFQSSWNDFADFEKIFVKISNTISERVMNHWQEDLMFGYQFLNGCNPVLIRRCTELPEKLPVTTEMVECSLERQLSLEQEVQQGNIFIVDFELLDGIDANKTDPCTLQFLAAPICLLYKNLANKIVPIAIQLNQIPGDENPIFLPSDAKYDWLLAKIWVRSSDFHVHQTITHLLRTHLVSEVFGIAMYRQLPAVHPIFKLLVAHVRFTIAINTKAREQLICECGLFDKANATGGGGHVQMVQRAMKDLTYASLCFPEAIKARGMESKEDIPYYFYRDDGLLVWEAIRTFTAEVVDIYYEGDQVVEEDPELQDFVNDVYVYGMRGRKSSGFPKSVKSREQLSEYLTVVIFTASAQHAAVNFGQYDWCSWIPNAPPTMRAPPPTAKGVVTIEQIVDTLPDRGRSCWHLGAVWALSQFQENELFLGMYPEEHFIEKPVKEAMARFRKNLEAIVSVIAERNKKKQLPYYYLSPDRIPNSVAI
- assay notes: Inhibition of 5-lipoxygenase in A23187-stimulated human polymorphonuclear leukocytes using arachidonic acid as substrate incubated 15 mins prior to substrate addition measured after 10 mins by HPLC analysis
measured metric: IC50 (nM)

INSERT INTO assay_data (compound, measured_metric, reported_relation, test_value) VALUES
  ('O=C(O)CSc1nc(Cl)cc(Nc2nc(-c3ccc(Cl)cc3)cs2)n1', 'IC50', '>', 10000),
  ('CCCCCCC(Sc1nc(Cl)cc(Nc2nc(-c3ccc(F)cc3F)cs2)n1)C(=O)O (centres undefined)', 'IC50', '=', 1500),
  ('CCCCCC[C@@H](Sc1nc(Cl)cc(Nc2nc(-c3ccc4ccccc4c3)cs2)n1)C(=O)O', 'IC50', '=', 400),
  ('CCCCCCC(Sc1nc(Cl)cc(Nc2nc(-c3ccc(-c4ccccc4)cc3)cs2)n1)C(=O)O (centres undefined)', 'IC50', '=', 300),
  ('CCCCCCC(Sc1nc(Cl)cc(Nc2nc(-c3ccc(C(F)(F)F)cc3)cs2)n1)C(=O)O (centres undefined)', 'IC50', '=', 600),
  ('CCCCCCC(Sc1nc(Cl)cc(Nc2nc(-c3ccc(F)c(F)c3)cs2)n1)C(=O)O (centres undefined)', 'IC50', '=', 1500),
  ('CCCCCCC(Sc1nc(Cl)cc(Nc2nc(C34CC5CC(CC(C5)C3)C4)cs2)n1)C(=O)O (centres undefined)', 'IC50', '=', 3300),
  ('CCCCCCC(Sc1nc(Cl)cc(Nc2nc(-c3ccc(Br)cc3)cs2)n1)C(=O)O (centres undefined)', 'IC50', '=', 300),
  ('CCCCCCC(Sc1nc(Cl)cc(Nc2nc(-c3ccc(Cl)cc3Cl)cs2)n1)C(=O)O (centres undefined)', 'IC50', '=', 800);
